Target: T1, truncated hTfR1 of SEQ ID NO:122 (human, UniProt P02786 122-760)
T1 construct: also called human TfR1; Human TfR1
T1 sequence (P02786 other isoform, or with tags, fused parts or gaps limits assumed): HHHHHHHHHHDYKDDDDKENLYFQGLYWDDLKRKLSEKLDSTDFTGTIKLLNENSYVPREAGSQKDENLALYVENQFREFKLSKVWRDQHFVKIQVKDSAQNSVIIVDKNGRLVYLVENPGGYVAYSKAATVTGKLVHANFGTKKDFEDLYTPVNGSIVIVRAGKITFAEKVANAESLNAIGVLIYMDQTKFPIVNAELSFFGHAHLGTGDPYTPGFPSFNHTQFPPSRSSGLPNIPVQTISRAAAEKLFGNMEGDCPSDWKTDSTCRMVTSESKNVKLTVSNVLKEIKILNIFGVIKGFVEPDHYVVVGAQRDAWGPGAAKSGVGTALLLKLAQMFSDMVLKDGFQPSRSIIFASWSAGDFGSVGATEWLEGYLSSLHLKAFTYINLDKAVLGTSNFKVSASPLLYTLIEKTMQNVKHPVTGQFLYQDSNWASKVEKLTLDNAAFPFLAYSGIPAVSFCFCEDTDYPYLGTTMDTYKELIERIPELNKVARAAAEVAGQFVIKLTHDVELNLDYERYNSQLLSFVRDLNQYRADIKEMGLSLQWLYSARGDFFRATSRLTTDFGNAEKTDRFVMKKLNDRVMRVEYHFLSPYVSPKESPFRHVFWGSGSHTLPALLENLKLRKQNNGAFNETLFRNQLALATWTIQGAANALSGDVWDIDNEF
Assay: SPR, FLAG-captured TfR1, scFv injected, 1:1 fit
OBSERVATION TYPE: koff (s⁻¹)
Answers are plain numbers, in s⁻¹.

Q: GET /values?readout=koff&item= h26D3 HC6 DS L118S (scFv, also called h26D3 DS L118S) scFv: HHHHHHGGGGSGGGGSGGGGSGGGGSDIQMTQSPSSVSASVGDRVTITCKSSQSLLYSTNQKNYLAWYQQKPGKAPKLLIYWASTRESGVPSRFSGSGSGTDFTLTISSLQPEDFATYYCQQYFIYPRTFGCGTKVEIKGGGGSGGGGSGGGGSGGGGSEVQLVQSGAEVKKPGSSVKVSCKASGYIFTDYNMDWVRQAPGQCLEWIGDINPDADTTSYNEKFKGRATLTVDKSTSTAYMELSSLRSEDTAVYYCARGGYSGSSYYHPMDYWGQGTSVTVSS
A: 0.00393
